- Assay procedure: ATG_RORE_CIS: Attagene CIS-FACTORIAL HepG2 Assay for human RAR-related Orphan Receptor Element (RORE) (AID 2282959)
- Condition: HepG2 Attagene cis-factorial RORE reporter, mRNA; actives raise or lower the signal
Activity calls are given as the source filed them. The calls were made as follows: active = hit-call score of the fitted dose curve at least 0.9, where 1 is the maximum; inactive = score below 0.9.
Measurement label: AC50

Example cases with answers are listed next.
>>> measurement("CCOC(=O)C(SP(=S)(OC)OC)c1ccccc1 (configuration not stated)")
"inactive"
>>> measurement("O=c1[nH]c2ccccc2n1C1CCN(CCCC(c2ccc(F)cc2)c2ccc(F)cc2)CC1")
"inactive"
>>> measurement("O=C(O)C1(c2ccc3c(c2)OC[C@H](Cc2ccc(-c4ccccc4)cc2)[C@H]3O)CCCC1")
"inactive"
>>> measurement("COc1ccc([N+](=O)[O-])cc1O")
"inactive"
>>> measurement("Brc1ccc(Br)cc1")
"inactive"
>>> measurement("O=NN1CCCCCC1")
"inactive"

Given item `O=S1(=O)OC(c2cc(Br)c(O)c(Br)c2)(c2cc(Br)c(O)c(Br)c2)c2ccccc21` , the value recorded as its AC50 is 93 µM (active)

For `CC(C)CC(C)(c1ccc(O)cc1)c1ccc(O)cc1` the molecule record lists AC50 as inactive

* * *

- Read-out: Monocyte Chemoattractant Protein-1 (MCP1), CCL2 (gene 6347)
- Assay procedure: BSK_SAg_MCP1: BioMAP Diversity Plus: SAg Assay for Monocyte Chemoattractant Protein-1 (MCP1) Biomarker Activity (AID 2283090)
- Condition: primary human HUVEC with PBMC; actives raise or lower the signal
The source made the active and inactive calls. How the source made its calls: active means hit-call score of the fitted dose curve at least 0.9, where 1 is the maximum; inactive means score below 0.9.
Measurement label: AC50

Completed entries (count: 5):
>>> measurement("O=S(=O)(c1ccc(Cl)cc1)c1cc(Cl)c(Cl)cc1Cl")
"inactive"
>>> measurement("O=S(=O)(C(Cl)(Cl)Cl)C(Cl)(Cl)Cl")
"4.17 µM (active)"
>>> measurement("CCC(C)(C#N)N=NC(C)(C#N)CC (stereo not given)")
"inactive"
>>> measurement("CC(C)(COCC1CO1)COCC1CO1 (stereo not given)")
"inactive"
>>> measurement("Cc1cc(C)cc(C)c1")
"inactive"

The reported value for `Oc1ccc(Cc2ccc(O)cc2)cc1` in terms of AC50 is inactive

compound `Oc1cc(Cl)c(Cl)cc1Cl` , AC50 observed: 32.2 µM (active)

Per the records, this compound ( C=CC(Cl)CCl (stereo not given) ) has AC50 equal to inactive

Reported AC50 of `OCCCCO` : inactive

Reported AC50 of `CC(C)N(C(=O)CCl)c1ccccc1` : 27.9 µM (active)

Data point: CC(C=O)Cc1ccc2c(c1)OCO2 (stereo not given) ; AC50 = inactive

The recorded AC50 for entry `O=C(O)COc1cc(Cl)c(Cl)cc1Cl` equals inactive

# AC50 (compound: `O=[N+]([O-])c1cccc2ccccc12` ) is inactive

The recorded AC50 for entry `O=[N+]([O-])c1ccc(Nc2ccccc2)cc1` equals inactive

Reported AC50 ( CC(C)=CC1C(C(=O)OCc2cccc(Oc3ccccc3)c2)C1(C)C (stereo not given) ) = inactive

Measured AC50, `CC(C)(C)c1cc([N+](=O)[O-])cc(C(C)(C)C)c1O` : 0.458 µM (active)

Record `CCOP(=S)(OCC)OP(=S)(OCC)OCC` , field AC50: inactive

According to the records, this compound `N#Cc1cccnc1` displays AC50 of inactive

Reported AC50 for `OCCN(CCO)CCO` was inactive

AC50 reading for `COCC(=O)N(c1c(C)cccc1C)[C@H](C)C(=O)OC` : inactive

What the record says about `CCOC(=O)CCN(SN(C)C(=O)Oc1cccc2c1OC(C)(C)C2)C(C)C` : AC50 is 32 µM (active)

Field AC50 (entry N#CCCC(Br)(C#N)CBr (stereo not given) ) reads 20 µM (active)

According to the records, this compound `Cc1ccccc1OP(=O)(Oc1ccccc1C)Oc1ccccc1C` displays AC50 of 14.8 µM (active)

The reported AC50 of the compound `CC(C)(C)c1ccccc1O` was inactive

The compound listed as `Cc1ccc(OP(=O)(Oc2ccc(C)cc2C)Oc2ccc(C)cc2C)c(C)c1` shows AC50 equal to 5.89 µM (active)

// sample CCOC(=O)C(SP(=S)(OC)OC)c1ccccc1 (stereo not given) , its AC50 was inactive

* * *

- Read-out: Intercellular Adhesion Molecule 1 (ICAM1), ICAM1 (gene 3383)
- Assay procedure: BSK_3C_ICAM1: BioMAP Diversity Plus: 3C Assay for Intercellular Adhesion Molecule 1 (ICAM1) Biomarker Activity (AID 2283003)
- Condition: primary human endothelial cells (HUVEC); actives raise or lower the signal
Activity calls are given as the source filed them. Rule for the calls: active = hit-call score of the fitted dose curve at least 0.9, where 1 is the maximum; inactive = score below 0.9.
// classify into active, inactive

>>> category_label("O=S(=O)(C(Cl)(Cl)Cl)C(Cl)(Cl)Cl")
"active"
>>> category_label("N#CCCC(Br)(C#N)CBr (stereo not drawn)")
"active"
>>> category_label("COCC(=O)N(c1c(C)cccc1C)[C@H](C)C(=O)OC")
"inactive"
>>> category_label("CCCCN(CCCC)C(=S)[S-].CCCCN(CCCC)C(=S)[S-].[Ni+2]")
"inactive"
>>> category_label("Oc1ccc(Cc2ccc(O)cc2)cc1")
"inactive"

[ask] So what was the verdict on OC(Cc1ccccc1Cl)(Cn1[nH]cnc1=S)C1(Cl)CC1 (stereo not drawn) in this test?
[reply] inactive

[ask] // outcome(item) with item = `OCCCCO`
[reply] inactive

[ask] Could you kindly confirm the outcome this assay logged for `CCCCCCCCCCCCN(C)C` ?
[reply] inactive

[ask] So what was the verdict on `Oc1cccc(-c2ccccc2)c1` in this test?
[reply] inactive

[ask] What was the test verdict on `Clc1cccc(Cl)c1` ?
[reply] inactive

[ask] // outcome(item) with item = `[Cl][Sn]([c]1ccccc1)([c]1ccccc1)[c]1ccccc1`
[reply] active

[ask] Please indicate how the test categorized `Clc1cccc(Cl)c1Cl` .
[reply] inactive

* * *

- Assay procedure: ATG_GATA_CIS: Attagene CIS-FACTORIAL HepG2 Assay for human GATA Binding Protein (AID 2282944)
- Condition: HepG2 GATA cis-element reporter, Attagene multiplex mRNA; actives raise or lower the signal
Activity calls are given as the source filed them. Rule for the calls: active = hit-call score of the fitted dose curve at least 0.9, where 1 is the maximum; inactive = score below 0.9.
In this exercise, the only acceptable responses are active, inactive

Answered cases to consult:
>>> category_label("N#CCC#N")
"inactive"
>>> category_label("CCC[CH2][Sn]([CH2]CCC)([CH2]CCC)[CH2]CCC")
"inactive"
>>> category_label("c1ccc(-c2cccc(-c3ccccc3)c2)cc1")
"inactive"
>>> category_label("O=[N+]([O-])c1cccc2ccccc12")
"inactive"
>>> category_label("Cc1cc(C(C)(C)c2ccc(O)c(C)c2)ccc1O")
"active"
>>> category_label("O=S(=O)(C(Cl)(Cl)Cl)C(Cl)(Cl)Cl")
"inactive"

From here, focus on the item given below.
[ask] What classification did `COC(=O)Nc1cccc(OC(=O)Nc2cccc(C)c2)c1` end up with in this test?
[reply] inactive

* * *

- Assay procedure: CCTE_Shafer_MEA_acute_burst_duration_mean: CCTE's Neural Acute Assay for Mean Burst Duration, Shafer Lab (AID 2284014);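 also: hits are decreases in mean burst duration relative to DMSO controls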
- Method: CCTE_Shafer_MEA_acute assay is conducted using Axion Biosystems 48 well microelectrode array (MEA) plates and Maestro recording system. Each well of the MEA plate contains a grid of 16 microelectrodes embedded in the culture surface. Electrically active cells, such as neurons, can be cultured over the electrodes, and electrical activity in these cells can be recorded extracellularly. […]
Activity calls are given as the source filed them. How the source made its calls: active means hit-call score of the fitted dose curve at least 0.9, where 1 is the maximum; inactive means score below 0.9.
Lab note: assign the record to one of Yes (active), No (inactive)

See these solved cases before continuing.
>>> category_label("CS(=O)(=O)c1ccc(C(=O)C2C(=O)CCCC2=O)c(Cl)c1COCC(F)(F)F")
"No"
>>> category_label("Cc1ccccc1OP(=O)(Oc1ccccc1C)Oc1ccccc1C")
"Yes"

[ask] Would you mind telling me which call this test gave `CC(C)(C)c1ccccc1O` ?
[reply] No

* * *

- Read-out: CD69, CD69 (gene 969)
- Assay procedure: BSK_SAg_CD69: BioMAP Diversity Plus: SAg Assay for CD69 Biomarker Activity (AID 2283089);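 as to AC50: cell surface CD69 protein quantified by ELISA with fluorescence detection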
- Condition: primary human HUVEC with PBMC; actives raise or lower the signal
- Experimental: BSK_SAg is a cell-based, multiplexed-readout assay that uses umbilical vein endothelium and peripheral blood mononuclear cells, a human vascular primary cell co-culture, with measurements taken at 24 hours after chemical dosing in a 96-well plate.BSK_SAg_CD69 is one of 10 assay component(s) measured or calculated from the BSK_SAg assay. […] This assay endpoint, BSK_SAg_CD69, was analyzed with bidirectional fitting relative to DMSO as the negative control and baseline of activity. […]
The source made the active and inactive calls. How the source made its calls: active means hit-call score of the fitted dose curve at least 0.9, where 1 is the maximum; inactive means score below 0.9.
Measurement label: AC50

Some solved entries appear below for comparison.
>>> measurement("O=C(N[C@H]1CN2CCC1CC2)c1ccc2c(c1)OCCO2")
"inactive"
>>> measurement("Oc1cc(Cl)c(Cl)cc1Cl")
"20 µM (active)"
>>> measurement("OC(Cc1ccccc1Cl)(Cn1[nH]cnc1=S)C1(Cl)CC1 (stereo not drawn)")
"14.1 µM (active)"
>>> measurement("CC(C)N(C(=O)CCl)c1ccccc1")
"20 µM (active)"
>>> measurement("CC(C)O.CC(C)O.OCCN(CCO)CCO.OCCN(CCO)CCO.[Ti]")
"inactive"
>>> measurement("CCOP(=O)(OCC)SCCSCC")
"inactive"
>>> measurement("O=C(CCl)NCO")
"inactive"

Consider the additional compound presented here.
Please fill in: AC50 reported for `CCOP(=S)(OCC)SCS(=O)(=O)C(C)(C)C` = inactive
